// reported μ (binding on the μ opioid receptor, % inhibition) for each item listed
# target.under.test: human μ opiate receptor (Homo sapiens, UniProt P35372)
# Construct: purchased PerkinElmer Life Sciences, Zaventem, Belgium RB-HOM; host or cells: CHO-K1 cells (membrane preparation)
# Sequence (P35372 whole entry): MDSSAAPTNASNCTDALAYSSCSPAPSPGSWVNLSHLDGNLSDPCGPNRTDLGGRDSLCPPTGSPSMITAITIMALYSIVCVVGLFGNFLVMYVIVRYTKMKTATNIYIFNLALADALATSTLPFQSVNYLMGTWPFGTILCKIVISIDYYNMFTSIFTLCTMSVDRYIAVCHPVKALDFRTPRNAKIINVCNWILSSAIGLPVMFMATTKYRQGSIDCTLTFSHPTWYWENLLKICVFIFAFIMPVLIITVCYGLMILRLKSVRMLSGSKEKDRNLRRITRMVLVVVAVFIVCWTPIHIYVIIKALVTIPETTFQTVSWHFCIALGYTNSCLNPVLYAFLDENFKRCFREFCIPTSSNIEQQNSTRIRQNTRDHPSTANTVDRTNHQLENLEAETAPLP
# procedure.summary: Affinity for the human μ opiate receptor ([3H]-naloxone displacement, CHO-K1 receptor membrane preparation, SPA)
# Format: binding
# condition.details: test concentration of 1 μM
# Procedure: Binding data of the compounds on the μ opioid receptor and data on the inhibition of reuptake of serotonin (5-HT) are given in Table 1. The data for the μ receptor were measured at a test concentration of 1 μM, and those for the serotonin reuptake at 10 μM. The values are stated in % inhibition. […] The receptor affinity for the human p opiate receptor is determined in a homogeneous set-up in microtitre plates. […]
Supply the numeric figure in %, leaving out any unit text.

# count of solved cases: 3
CN(C)C(c1cccc(F)c1)C1CCC(CNC(=O)COC2CCN(S(=O)(=O)c3ccc(F)cc3)C2)CC1 (centres unmarked) : 71
COc1ccc(S(=O)(=O)N2CCCCC2COCC(=O)NCCC2CCC(C(c3ccc(Cl)cc3)N(C)C)CC2)cc1OC (centres unmarked) : 23
COc1ccc(S(=O)(=O)N2Cc3ccccc3CC2COCC(=O)NCCC2CCC(C(c3ccc(F)cc3)N(C)C)CC2)cc1 (centres unmarked) : 58

GET /values?readout=μ (binding on the μ opioid receptor, % inhibition)&item= CN(C)C(c1ccc(F)cc1)C1CCC(CCNC(=O)COCCN(C)S(=O)(=O)c2c(Cl)cc(Cl)cc2Cl)CC1 (centres unmarked)
63

GET /values?readout=μ (binding on the μ opioid receptor, % inhibition)&item= CN(C)C(c1ccc(Cl)cc1)C1CCC(CCNC(=O)COCCN(C)S(=O)(=O)c2ccc(Cl)cc2)CC1 (centres unmarked)
63

GET /values?readout=μ (binding on the μ opioid receptor, % inhibition)&item= COc1cc(C)c(S(=O)(=O)N2CCC(OCC(=O)NCC3CCC(C(c4cccc(F)c4)N(C)C)CC3)CC2)c(C)c1C (centres unmarked)
71

GET /values?readout=μ (binding on the μ opioid receptor, % inhibition)&item= COc1ccc(S(=O)(=O)N(C)CCOCC(=O)NCC2CCC(C(c3ccc(Cl)cc3)N(C)C)CC2)cc1OC (centres unmarked)
45

GET /values?readout=μ (binding on the μ opioid receptor, % inhibition)&item= COc1cc(C)c(S(=O)(=O)N(CCOCC(=O)NCC2CCC(C(c3cccc(F)c3)N(C)C)CC2)Cc2ccccc2)c(C)c1C (centres unmarked)
64

GET /values?readout=μ (binding on the μ opioid receptor, % inhibition)&item= CN(C)C(c1cccc(F)c1)C1CCC(NC(=O)COCC2CCCN2S(=O)(=O)c2ccc(Cl)c(Cl)c2)CC1 (centres unmarked)
83

###

# target.under.test: human μ opiate receptor (Homo sapiens, UniProt P35372)
# Construct: purchased PerkinElmer Life Sciences, Zaventem, Belgium RB-HOM; host or cells: CHO-K1 cells (membrane preparation)
# procedure.summary: Affinity for the human μ opiate receptor ([3H]-naloxone displacement, CHO-K1 receptor membrane preparation, SPA)
# Assay type: binding
# condition.details: test concentration of 1 μM; read-out: μ (binding on the μ opioid receptor, % inhibition)
# Protocol: Binding data of the compounds on the μ opioid receptor and data on the inhibition of reuptake of serotonin (5-HT) are given in Table 1. The data for the μ receptor were measured at a test concentration of 1 μM, and those for the serotonin reuptake at 10 μM. The values are stated in % inhibition. […] The receptor affinity for the human p opiate receptor is determined in a homogeneous set-up in microtitre plates. […]
Everything with inhibition at 1 µM lower than 90% is Not satisfied; everything else, including exactly 90%, is Satisfied.

CN(C)C(c1ccccc1)C1CCC(CNC(=O)COCCN(C)S(=O)(=O)c2ccc(Cl)cc2)CC1 (stereo not shown) : Not satisfied
COc1ccc(S(=O)(=O)N2CCCC2COCC(=O)NCC2CCC(C(c3cccs3)N(C)C)CC2)cc1 (stereo not shown) : Satisfied
COc1cc(C)c(S(=O)(=O)N2CCC(CCOCC(=O)NC3CCC(C(c4cccs4)N(C)C)CC3)CC2)c(C)c1C (stereo not shown) : Satisfied
CN(C)C(c1ccccc1)C1CCC(NC(=O)COCCC2CCN(S(=O)(=O)c3ccccc3)CC2)CC1 (stereo not shown) : Not satisfied

Could you please find out whether CN(C)C(c1ccccc1)C1CCC(CNC(=O)COC2CCN(S(=O)(=O)c3ccc(Cl)cc3Cl)C2)CC1 (stereo not shown) has inhibition at 1 µM that meets 90% or exceeds it?
Satisfied

Could you please find out whether CN(C)C(c1cccs1)C1CCC(NC(=O)COCCN(C)S(=O)(=O)c2ccc(Cl)cc2)CC1 (stereo not shown) has inhibition at 1 µM that meets 90% or exceeds it?
Satisfied

Could you please find out whether COc1ccc(S(=O)(=O)N(C)CCOCC(=O)NCC2CCC(C(c3ccccc3)N(C)C)CC2)cc1OC (stereo not shown) has inhibition at 1 µM that meets 90% or exceeds it?
Not satisfied
